- Test system: T-47D breast
- PROTOCOL NOTES: NCI tumour cell line growth inhibition, 48 h
Measured log10 TGI, listed per entry.
Recall that a logarithmic scale is used here: each number is log10 of TGI in µM.

Q: Entry under review: CN(CCc1ccc(Cl)c(Cl)c1)CCN(C)CCN1CCCC1 . Reported log10 TGI?
Ans: 1.65

Q: Entry under review: N=C(N)c1ccc(-c2ccc(-c3ccc(Cl)cc3)s2)nc1 . Reported log10 TGI?
Ans: 0.65

Q: Entry under review: CC(C)C(C/C=C1/CC(CO)(COC(=O)C2CCCCC2)OC1=O)C(C)C (stereo not given) . Reported log10 TGI?
Ans: 1.66

Q: Entry under review: Oc1c(Cl)cc(Cl)c2cccnc12 . Reported log10 TGI?
Ans: 1.08

Q: Entry under review: ONC1=Nc2ccccc2OCc2cc(Br)c(Br)cc2COc2ccccc2N=C1NO . Reported log10 TGI?
Ans: 1.49
